The values you see were collected from paper PMC12040169.

Items are presented alongside their recorded viability at 28.5 h, 10 µM.
test_details: in vitro
test_conditions: human, hela cells, % viability, bulk resorufin, single well

record_smiles	viability at 28.5 h, 10 µM, %
CCN(CC)CCN(C)Cc1ccc2ccc3cccc4ccc1c2c34	103
O=C1NC(=O)N(Cc2ccco2)C(=O)/C1=C\c1ccc(-c2ccc(Cl)c(C(=O)O)c2)o1	97.9
COC(=O)c1ccc(N2C(=O)NC(=O)/C(=C\c3ccccc3OCC(=O)O)C2=O)cc1	84.7
Cc1cc(/C=C2\C(=O)NC(=O)N(c3ccccc3F)C2=O)c(C)n1-c1cc(C(=O)O)cc(C(=O)O)c1	89.9
CC(C)NC(=O)Cn1cc(C(=O)COc2ccccc2)c2ccccc21	82.6
O=C(O)COc1c(Cl)cc(C=C2C(=O)NC(=O)NC2=O)cc1Cl	83
CCOC(=O)C1(c2ccccc2)CCN(C(=O)COc2ccc(F)cc2)CC1	93.8
Cc1cc(/C=C2\C(=O)NC(=O)N(c3cccc(F)c3)C2=O)c(C)n1-c1cc(C(=O)O)cc(C(=O)O)c1	97.3
